test-system: EGFR del746-750 T790M (Homo sapiens, UniProt P00533, DEL746-750/T790M)
Sequence (P00533 with tags, fused parts or gaps DEL746-750/T790M limits assumed): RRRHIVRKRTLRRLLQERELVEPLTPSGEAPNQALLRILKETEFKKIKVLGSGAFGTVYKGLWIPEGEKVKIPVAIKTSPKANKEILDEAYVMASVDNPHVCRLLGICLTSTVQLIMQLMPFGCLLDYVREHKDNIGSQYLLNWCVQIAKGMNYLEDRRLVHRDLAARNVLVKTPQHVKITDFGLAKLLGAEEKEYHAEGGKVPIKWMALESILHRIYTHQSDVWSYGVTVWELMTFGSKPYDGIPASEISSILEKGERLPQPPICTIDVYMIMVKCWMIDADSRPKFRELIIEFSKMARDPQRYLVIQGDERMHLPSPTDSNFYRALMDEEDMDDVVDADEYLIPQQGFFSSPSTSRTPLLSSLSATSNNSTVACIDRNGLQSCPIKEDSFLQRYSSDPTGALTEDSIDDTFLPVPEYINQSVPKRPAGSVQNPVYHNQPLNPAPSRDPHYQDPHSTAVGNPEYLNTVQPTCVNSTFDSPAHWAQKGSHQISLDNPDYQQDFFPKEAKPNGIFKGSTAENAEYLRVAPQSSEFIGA
protocol-details: EGFR del746-750 T790M biochemical assay (Caliper mobility shift)
condition-label: 5 μM ATP; apparent Ki (Morrison fit) converted by Cheng-Prusoff, Km of ATP 2.1 μM; read-out: EGFR(T790M/d746-750) Ki
Please provide measured pKi for the entries that follow.
Just the number, please; pKi means minus log10 of the concentration in mol/L.

Req: Bench note: what pKi did CC(C)n1nc(N2CCC(O)C2=O)c2cnc(Nc3ccnc(-c4cnn(S(=O)(=O)C5CC5)c4)n3)cc21 (stereo in doubt) show?
Resp: 8.82

Req: Would you kindly repeat that for CC(C)n1nc(N2CC(C(C)(C)C#N)C2)c2cnc(Nc3ccnc(-c4cnn(S(=O)(=O)C5CC5)c4)n3)cc21 ?
Resp: 8.72

Req: Would you kindly repeat that for CC(C)n1nc(N2CC3(COC3)C2)c2cnc(Nc3ccnc(N4CCC(O)C(F)C4)n3)cc21 (racemic) ?
Resp: 8.52

Req: Would you kindly repeat that for CC(C)n1nc(N2CCCC2=O)c2cnc(Nc3ccnc(N4CC[C@H](O)[C@H](F)C4)n3)cc21 (racemic) ?
Resp: 8.37

Req: Would you kindly repeat that for CC(C)n1nc(N2CC(O)CC2=O)c2cnc(Nc3ccnc(N4CC[C@H](O)[C@H](F)C4)n3)cc21 (mixture of isomers) ?
Resp: 8.32

Req: Would you kindly repeat that for CCC(C)n1nc(N2CC3(COC3)C2)c2cnc(Nc3ccnc(N4CC[C@@H](O)[C@@H](F)C4)n3)cc21 (single isomer, unassigned) [Example 197] ?
Resp: 8.57
